test system: UTI89 biofilm; assay: UTI89 type 1 dependent biofilm formation (inhibition/prevention) assay on PVC, crystal violet; assay type: cell-based, uropathogenic E. coli UTI89; conditions: Escherichia coli, read-out: biofilm inhibition IC50
readout_type: IC50 (µM)
One number for each entry, in µM.

Any idea what IC50 was measured for CNC(=O)c1cccc(-c2ccc(O[C@H]3O[C@H](CO)[C@@H](O)[C@H](O)[C@@H]3O)cc2)c1 [Compound 2] ?
1.35

###

target: FimH (Escherichia coli, UniProt Q1R2J4); settings: read-out: HA 50% Titer; Table 10; Example 6 numbering
readout_type: pEC50
Give bare numbers, as −log10 of the molar value.

# query: pEC50 of entry N#Cc1ccccc1OC1OC(CO)C(O)C(O)C1O (stereo not shown)
5.22

###

biological target: FimH (Escherichia coli, UniProt Q1R2J4); details: Table 21; ZFH/JWJ codes;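 further: hemagglutination inhibition of guinea pig erythrocytes agglutinated by type 1 piliated uropathogenic E. coli via FimH mannose binding, quantified through serial dilutions of compound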
readout_type: HAI Titer EC>50 (µM)
Numbers only, in µM.

Worked cases, answers included:
- compound: "COC(=O)c1cccc(-c2ccc(OC3O[C@@H](CO)[C@@H](O)[C@H](O)[C@H]3O)c(OC)c2)c1 (stereo partly shown) [Compound 4ZFH228]"
  unit_abbrev: "µM"
  HAI Titer EC>50: 0.188
- compound: "COC(=O)c1cc(-c2ccc(OC3OC(CO)C(O)C(O)C3O)cc2)ccc1NC(C)=O (stereo not shown) [Compound 4ZFH308]"
  unit_abbrev: "µM"
  HAI Titer EC>50: 0.250
- compound: "CNC(=O)c1cc(C(=O)NC)cc(-c2ccc(OC3O[C@@H](CO)[C@@H](O)[C@H](O)[C@H]3O)c(C(F)(F)F)c2)c1 (stereo partly shown) [Compound 1JWJ149]"
  unit_abbrev: "µM"
  HAI Titer EC>50: 0.008
- compound: "CNC(=O)c1cccc(-c2ccc(OC3O[C@@H](CO)[C@@H](O)[C@H](O)[C@H]3O)c(C(F)(F)F)c2)c1 (stereo partly shown) [Compound 4ZFH272]"
  unit_abbrev: "µM"
  HAI Titer EC>50: 0.032
- compound: "COC(=O)c1cccc(-c2ccc(OC3O[C@@H](CO)[C@@H](O)[C@H](O)[C@H]3O)c(C)c2)c1 (stereo partly shown) [Compound 4ZFH224]"
  unit_abbrev: "µM"
  HAI Titer EC>50: 0.125
- compound: "COC(=O)COC1OC(CO)C(O)C(O)C1O (stereo not shown) [Compound 1ZFH74]"
  unit_abbrev: "µM"
  HAI Titer EC>50: 500.000

Here is the next item to consider.
Suppose we examine the compound CCCCOC1OC(CO)C(O)C(O)C1O (stereo not shown) [Compound 1ZFH84] ; what HAI Titer EC>50 value has been reported?
125.000

###

Measurement record for FimH (Escherichia coli, UniProt Q1R2J4); quantity recorded: HAI Titer EC>90.
Numeric answer plus unit only.

Below, each entry is followed by its recorded HAI Titer EC>90 result.
- compound: "N#Cc1cccc(-c2ccc(OC3OC(CO)C(O)C(O)C3O)cc2)c1 (stereo not drawn) [Compound 3ZFH68]"
  result: "1.000 µM"
- compound: "COC(=O)c1cccc(-c2ccc(OC3OC(CO)C(O)C(O)C3O)cc2)c1 (stereo not drawn) [Compound 1ZFH253]"
  result: "1.000 µM"
- compound: "COC(=O)c1cccc(-c2ccc(OC3OC(CO)C(O)C(O)C3O)cc2C(=O)OC)c1 (stereo not drawn) [Compound 2ZFH244]"
  result: "1.000 µM"
- compound: "N#Cc1ccc(-c2ccc(OC3OC(CO)C(O)C(O)C3O)cc2)cc1 (stereo not drawn) [Compound 3ZFH70]"
  result: "8.000 µM"
- compound: "COc1cccc(-c2ccc(OC3OC(CO)C(O)C(O)C3O)cc2)c1 (stereo not drawn) [Compound 3ZFH190]"
  result: "1.500 µM"

Batch request: HAI Titer EC>90 per item, same order as input.
1. CS(=O)(=O)Nc1cccc(-c2ccc(OC3OC(CO)C(O)C(O)C3O)cc2)c1 (stereo not drawn) [Compound 3ZFH166]
2. CN(C)C(=O)c1cccc(-c2ccc(OC3OC(CO)C(O)C(O)C3O)cc2)c1 (stereo not drawn) [JJ-I-93]
3. COc1ccc(OC2OC(CO)C(O)C(O)C2O)cc1 (stereo not drawn) [Compound 2ZFH176]

["2.000 µM", "3.000 µM", "8.000 µM"]

Item CNC(=O)c1cccc(-c2ccc(OC3OC(CO)C(O)C(O)C3O)cc2)c1 (stereo not drawn) [Compound 2ZFH50] has what recorded HAI Titer EC>90?
0.500 µM
